- measured on: Human IFNβ (mature human interferon beta) (human, UniProt P01574 22-187)
- Sequence (P01574 22-187): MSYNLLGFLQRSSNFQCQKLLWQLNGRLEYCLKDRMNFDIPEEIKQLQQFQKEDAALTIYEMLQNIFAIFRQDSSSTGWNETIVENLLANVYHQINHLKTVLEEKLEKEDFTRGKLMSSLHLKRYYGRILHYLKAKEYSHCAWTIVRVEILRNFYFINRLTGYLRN
- measurement notes: cell-based or functional assay
Hi there, I'd appreciate the recorded IC50 (pM) pSTAT1 Inhibition for every entry that follows.
Please answer using a numeric value trailed by its unit.

The following binders each have a reported value; give each one's IC50 (pM) pSTAT1 Inhibition.
1. CTI-AF27 (antibody, human IgG1, kappa, V domains shown) VH: QVQLVQSGAEVKKPGSSVKVSCKASGYTFSRYWMHWVRQAPGQGLEWMGHIDPSDSYTYYNQKFKGRVTITADESTSTAYMELSSLRSEDTAVYYCARWDYGNLLFEYWGQGTLVTVSS VL: DIQMTQSPSSLSASVGDRVTITCRTSQDIDNFLQWYQQKPGKAFKLLIFSTSKLHSGVPSRFSGSGSGTDFTLTISSLQPEDFATYYCQQGIILPITFGGGTKVEIKR
2. CTI-AF14 (antibody, human IgG1, kappa, V domains shown) VH: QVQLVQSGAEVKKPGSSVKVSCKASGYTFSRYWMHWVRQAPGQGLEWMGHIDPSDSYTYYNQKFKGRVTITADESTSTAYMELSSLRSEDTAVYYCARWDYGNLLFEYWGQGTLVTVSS VL: DIQMTQSPSSLSASVGDRVTITCRTSQDISNYLNWYQQKPGKAFKLLIFSTSRLHSGVPSRFSGSGSGTDFTLTISSLQPEDFATYYCQQGIILPITFGGGTKVEIKR

*A*
70 pM
30 pM
